Just for reference, the supplement of paper PMC10567573 is where these values come from.

B1: PBXIP1 (parent)
chain: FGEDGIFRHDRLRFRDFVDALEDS

# Variants of: B1
# protocol-description: protein stability index of a GFP-peptide fusion (GPS, HEK-293T) (PSI 1-6); higher = more stable;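 note: lentivirally expressed fusions sorted by FACS into six bins by GFP to DsRed ratio, PSI derived from sequencing read proportions per bin multiplied by bin number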
# applied-conditions: c terminus: a fixed tail appended
Item-by-item account of protein stability index

Field: example entries. Status: answers known.
1) F7H | 3.91
2) R13K | 2.85
3) H9I | 2.41
4) I6C | 2.33
5) L21C | 3.48
6) R8N | 3.16
7) H9G | 3.19
8) G5W | 1.4
9) G2I | 1.97
10) R13S | 2.92

According to the records, this variant R15I displays protein stability index of 2.23

Data point: R15M ; protein stability index = 2.54

Kindly note the recorded protein stability index for I6R , which is 3.72
